# Test system: Cryptococcus neoformans
# METHOD_NOTES: Antimicrobial activity against Cryptococcus neoformans after 72 hrs by NCCLS method
# Type: functional

STRUCTURE_STRING: CCCCCCCCn1cnc2ccc(C)cc2c1=O
ASSAY_TARGET: Cryptococcus neoformans
MIC80: > 64 µg/mL
//
STRUCTURE_STRING: CCCCCCCNCc1nc2ccccc2[nH]1
ASSAY_TARGET: Cryptococcus neoformans
MIC80: 64 µg/mL
//
STRUCTURE_STRING: CCCCCCN1CCc2c(c3cc(C)ccc3n2C)C1
ASSAY_TARGET: Cryptococcus neoformans
MIC80: 64 µg/mL
//
STRUCTURE_STRING: CCCCCCCCNCc1nc2ccccc2[nH]1
ASSAY_TARGET: Cryptococcus neoformans
MIC80: 16 µg/mL
//
STRUCTURE_STRING: CCCCCCCCN1CCc2c(c3cc(F)ccc3n2C)C1
ASSAY_TARGET: Cryptococcus neoformans
MIC80: > 64 µg/mL
//
STRUCTURE_STRING: CCCCCCCCNCc1nc2ccccc2o1
ASSAY_TARGET: Cryptococcus neoformans
MIC80: 1 µg/mL
//
STRUCTURE_STRING: CCCCCCN1CCc2c(c3cc(Cl)ccc3n2C)C1
ASSAY_TARGET: Cryptococcus neoformans
MIC80: > 64 µg/mL
//
STRUCTURE_STRING: CCCCCCCCN1CCc2c(c3cc(Br)ccc3n2C)C1
ASSAY_TARGET: Cryptococcus neoformans
MIC80: 64 µg/mL
//
STRUCTURE_STRING: CCCCCCCCN1CCc2c(c3cc(C)ccc3n2C)C1
ASSAY_TARGET: Cryptococcus neoformans
MIC80: > 64 µg/mL

Hey, just so you know, these numbers are from ChEMBL document CHEMBL1770107.
